# measured-target: G-protein coupled receptor 84 (Homo sapiens, UniProt Q9NQS5)
# Sequence (Q9NQS5 whole entry): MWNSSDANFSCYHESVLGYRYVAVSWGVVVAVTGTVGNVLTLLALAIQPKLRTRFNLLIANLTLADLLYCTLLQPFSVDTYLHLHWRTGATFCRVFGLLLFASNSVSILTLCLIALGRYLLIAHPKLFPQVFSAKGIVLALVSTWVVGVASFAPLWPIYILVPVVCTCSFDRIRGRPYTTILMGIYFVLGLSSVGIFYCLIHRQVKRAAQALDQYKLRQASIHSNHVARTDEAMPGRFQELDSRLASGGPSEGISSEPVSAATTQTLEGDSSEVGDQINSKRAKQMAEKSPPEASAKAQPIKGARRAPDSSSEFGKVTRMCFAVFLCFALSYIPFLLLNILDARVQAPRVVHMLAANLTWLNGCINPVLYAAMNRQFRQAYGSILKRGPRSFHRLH
# procedure-details: Agonist activity at Gi coupled human GPR84 expressed in CHO cells assessed as inhibition of forskolin-induced cAMP accumulation at 10 uM after 15 mins in presence of [3H]-cAMP by radiometric assay relative to decanoic acid
# Format: functional, cell-based
measurement-type: Emax (%)

structure | measurement-type | unit-abbreviation | quantitative-readout
COc1ccc(C(c2c[nH]c3ccccc23)c2c[nH]c3ccccc23)cc1 | Emax | % | -3
Cc1cccc2[nH]cc(Cc3c[nH]c4cccc(C)c34)c12 | Emax | % | 112
Cn1cc(Cc2cn(C)c3ccccc23)c2ccccc21 | Emax | % | -37
Fc1cccc2c(Cc3c[nH]c4c(F)cccc34)c[nH]c12 | Emax | % | 129
COc1ccc2[nH]cc(/C=C3\C(=O)Nc4ccccc43)c2c1 | Emax | % | -10
N#Cc1ccc2[nH]cc(Cc3c[nH]c4ccc(C#N)cc34)c2c1 | Emax | % | 49

---

# measured-target: G-protein coupled receptor 84 (Homo sapiens)
# procedure-details: Agonist activity at Gi coupled human GPR84 expressed in CHO cells assessed as inhibition of forskolin-induced cAMP accumulation at 10 uM after 15 mins in presence of [3H]-cAMP by radiometric assay relative to decanoic acid
# Type: functional, cell-based
Here, each record is paired with measured Emax data.
measurement-type: Emax (%)

compound | measurement-type | quantitative-readout
Fc1ccc(C(c2c[nH]c3ccccc23)c2c[nH]c3ccccc23)cc1 | Emax | 8
COc1ccc2c(Cc3c[nH]c4cc(OC)ccc34)c[nH]c2c1 | Emax | 31
CC(c1c[nH]c2ccccc12)c1c[nH]c2ccccc12 [VIBRINDOLE A] | Emax | -5
O=C(O)c1ccc2[nH]cc(Cc3c[nH]c4ccc(C(=O)O)cc34)c2c1 | Emax | 28
Clc1cccc2[nH]cc(Cc3c[nH]c4cccc(Cl)c34)c12 | Emax | 111
c1cnc2[nH]cc(Cc3c[nH]c4ncccc34)c2c1 | Emax | -12
O=C1Nc2ccccc2C1=Cc1c[nH]c2ccc(F)cc12 | Emax | -1
COc1cccc2[nH]cc(Cc3c[nH]c4cccc(OC)c34)c12 | Emax | 47
Brc1ccc2[nH]cc(Cc3c[nH]c4ccc(Br)cc34)c2c1 | Emax | 106
Oc1ccc(C(c2c[nH]c3ccccc23)c2c[nH]c3ccccc23)cc1 | Emax | 7
COC(=O)c1ccc2[nH]cc(Cc3c[nH]c4ccccc34)c2c1 | Emax | 57

---

Here, each record is paired with measured EC50 data.
# measured-target: G-protein coupled receptor 84 (Homo sapiens, UniProt Q9NQS5)
# procedure-details: Agonist activity at human GPR84 expressed in CHO cells assessed as beta-arrestin recruitment after 90 mins by beta-galactosidase complementation assay
# Format: cell-based

structure | EC50
Oc1ccc(C(c2c[nH]c3ccccc23)c2c[nH]c3ccccc23)cc1 | > 10 µM
Cc1[nH]c2ccccc2c1Cc1c(C)[nH]c2ccccc12 | > 10 µM
CC(c1c[nH]c2ccccc12)c1c[nH]c2ccccc12 | > 10 µM
CC(C)C(c1c[nH]c2ccccc12)c1c[nH]c2ccccc12 | 7.29 µM
Fc1cccc2[nH]cc(Cc3c[nH]c4cccc(F)c34)c12 | 1.23 µM
O=C(c1c[nH]c2ccccc12)c1c[nH]c2ccccc12 | 19 µM
c1ccc2c(C(c3c[nH]c4ccccc34)c3c[nH]c4ccccc34)c[nH]c2c1 | > 10 µM
COc1ccc2[nH]cc(C=C3C(=O)Nc4ccc(F)cc43)c2c1 | > 10 µM
Clc1cccc2[nH]cc(Cc3c[nH]c4cccc(Cl)c34)c12 | > 10 µM
Fc1cc2c(Cc3c[nH]c4cc(Cl)c(F)cc34)c[nH]c2cc1Cl | 3.98 µM
CCCCC(c1c[nH]c2ccccc12)c1c[nH]c2ccccc12 | > 10 µM

---

# measured-target: Free fatty acid receptor 4 (Homo sapiens)
# procedure-details: Antagonist activity at human FFAR4 expressed in CHO cells assessed as inhibition of TUG-89-induced beta-arrestin recruitment at 10 uM preincubated for 30 mins followed by TUG-89 addition measured after 90 mins by beta-galactosidase complementation assay
# Type: cell-based
The source made the active and inactive calls. The rule behind the calls is not given here.

molecule | inhibition
COc1ccc2[nH]cc(CC3C(=O)Nc4ccccc43)c2c1 (stereo unspecified) | inactive
Fc1cccc2[nH]cc(Cc3c[nH]c4cccc(F)c34)c12 | inactive
Fc1cc2[nH]cc(Cc3c[nH]c4cc(F)c(F)cc34)c2cc1F | inactive
Fc1cccc2c(Cc3c[nH]c4c(F)cccc34)c[nH]c12 | inactive
Cc1ccc2[nH]cc(Cc3c[nH]c4ccc(C)cc34)c2c1 | inactive
Fc1ccc(C(c2c[nH]c3ccccc23)c2c[nH]c3ccccc23)cc1 | inactive

---

# measured-target: Free fatty acid receptor 4 (Homo sapiens) (UniProt Q5NUL3)
# Sequence (Q5NUL3 whole entry): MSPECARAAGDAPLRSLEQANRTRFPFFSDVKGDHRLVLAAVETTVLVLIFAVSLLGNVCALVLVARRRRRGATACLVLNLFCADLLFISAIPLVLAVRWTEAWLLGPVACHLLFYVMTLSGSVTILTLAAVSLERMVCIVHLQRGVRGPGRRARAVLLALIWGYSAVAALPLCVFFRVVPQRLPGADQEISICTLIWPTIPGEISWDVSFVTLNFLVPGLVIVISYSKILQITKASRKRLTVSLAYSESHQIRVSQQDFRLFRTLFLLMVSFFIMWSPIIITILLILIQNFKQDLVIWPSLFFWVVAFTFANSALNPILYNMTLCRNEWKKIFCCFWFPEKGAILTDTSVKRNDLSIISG
# procedure-details: Agonist activity at human FFAR4 expressed in CHO cells assessed as beta-arrestin recruitment at 10 uM after 90 mins by beta-galactosidase complementation assay
# Format: cell-based
The source made the active and inactive calls. The rule behind the calls is not given here.

structure | Activity
Brc1ccc2[nH]cc(Cc3c[nH]c4ccc(Br)cc34)c2c1 | inactive
O=Cc1ccc2[nH]cc(Cc3c[nH]c4ccc(C=O)cc34)c2c1 | inactive
Fc1ccc2[nH]cc(Cc3c[nH]c4ccc(F)c(F)c34)c2c1F | inactive
Cn1cc(Cc2c[nH]c3ccccc23)c2ccccc21 | inactive
COC(=O)c1ccc2[nH]cc(Cc3c[nH]c4ccc(C(=O)OC)cc34)c2c1 | inactive
CCC(c1c[nH]c2ccccc12)c1c[nH]c2ccccc12 | inactive
O=C1Nc2ccc(F)cc2/C1=C/c1c[nH]c2ccc(F)cc12 | inactive
Fc1ccc(C(c2c[nH]c3ccccc23)c2c[nH]c3ccccc23)cc1 | inactive
Cc1ccc2c(Cc3c[nH]c4cc(C)ccc34)c[nH]c2c1 | inactive

---

Here, each record is paired with measured EC50 data.
# measured-target: G-protein coupled receptor 84 (Homo sapiens)
# procedure-details: Agonist activity at human GPR84 expressed in CHO cells assessed as beta-arrestin recruitment after 90 mins by beta-galactosidase complementation assay
# Format: cell-based

structure | EC50
c1cnc2[nH]cc(Cc3c[nH]c4ncccc34)c2c1 | 2.27 µM
Cn1cc(Cc2c[nH]c3ccccc23)c2ccccc21 | > 10 µM
Fc1cc2[nH]cc(Cc3c[nH]c4cc(F)c(F)cc34)c2cc1F | 10.3 µM
Cc1cccc2[nH]cc(Cc3c[nH]c4cccc(C)c34)c12 | > 10 µM
Cc1ccc(C(c2c[nH]c3ccccc23)c2c[nH]c3ccccc23)cc1 | > 10 µM
Cc1ccc2[nH]cc(Cc3c[nH]c4ccc(C)cc34)c2c1 | ≥ 10 µM
O=C1Nc2ccccc2/C1=C/c1c[nH]c2ccccc12 | > 10 µM
c1cc2c(c(C(c3c[nH]c4ccccc34)c3c[nH]c4ccccc34)c1)OCO2 | > 10 µM
Fc1ccc2[nH]cc(Cc3c[nH]c4ccc(F)cc34)c2c1 | 4.33 µM
Fc1ccc2c(Cc3c[nH]c4cc(F)ccc34)c[nH]c2c1 | 7.53 µM

---

# measured-target: G-protein coupled receptor 84 (Homo sapiens)
# procedure-details: Agonist activity at human GPR84 expressed in CHO cells assessed as beta-arrestin recruitment at 10 uM after 90 mins by beta-galactosidase complementation assay relative to embelin
# Assay type: cell-based
Rule: Emax under 20% gives false, otherwise true.

molecule | assigned-class
Fc1cccc2[nH]cc(Cc3c[nH]c4cccc(F)c34)c12 | true
Fc1ccc2[nH]cc(Cc3c[nH]c4ccccc34)c2c1 | true
O=C(c1c[nH]c2ccccc12)c1c[nH]c2ccccc12 | true
CCC(c1c[nH]c2ccccc12)c1c[nH]c2ccccc12 | true
c1ccc2c(C(c3c[nH]c4ccccc34)c3c[nH]c4ccccc34)c[nH]c2c1 | false
Cn1cc(Cc2cn(C)c3ccccc23)c2ccccc21 | false
Fc1ccc2[nH]cc(Cc3c[nH]c4ccc(F)c(F)c34)c2c1F | false
Cc1ccc(C(c2c[nH]c3ccccc23)c2c[nH]c3ccccc23)cc1 | false
Cn1cc(Cc2c[nH]c3ccccc23)c2ccccc21 | false
CC(C)C(c1c[nH]c2ccccc12)c1c[nH]c2ccccc12 | true
CCCC(c1c[nH]c2ccccc12)c1c[nH]c2ccccc12 | true
Fc1ccc2c(Cc3c[nH]c4cc(F)ccc34)c[nH]c2c1 | true
Fc1cc2c(Cc3c[nH]c4cc(Cl)c(F)cc34)c[nH]c2cc1Cl | true
O=C1Nc2ccccc2C1=Cc1ccc2[nH]ccc2c1 | false
Fc1cc2[nH]cc(Cc3c[nH]c4cc(F)c(F)cc34)c2cc1F | true
c1cnc2[nH]cc(Cc3c[nH]c4ncccc34)c2c1 | true
Fc1cccc2c(Cc3c[nH]c4c(F)cccc34)c[nH]c12 | true
Clc1cccc2[nH]cc(Cc3c[nH]c4cccc(Cl)c34)c12 | true
Cc1cccc2[nH]cc(Cc3c[nH]c4cccc(C)c34)c12 | true
Fc1ccc2[nH]cc(Cc3c[nH]c4ccc(F)cc34)c2c1 | true
CCCCC(c1c[nH]c2ccccc12)c1c[nH]c2ccccc12 | false
CC(c1c[nH]c2ccccc12)c1c[nH]c2ccccc12 [VIBRINDOLE A] | false
Cc1[nH]c2ccccc2c1Cc1c(C)[nH]c2ccccc12 | true
O=C1Nc2ccccc2/C1=C/c1c[nH]c2ccccc12 | false

Attribution: ChEMBL document CHEMBL4014307
